- target or test system: Multidrug resistance-associated protein 1 (Homo sapiens, UniProt P33527)
- Sequence (P33527 whole entry): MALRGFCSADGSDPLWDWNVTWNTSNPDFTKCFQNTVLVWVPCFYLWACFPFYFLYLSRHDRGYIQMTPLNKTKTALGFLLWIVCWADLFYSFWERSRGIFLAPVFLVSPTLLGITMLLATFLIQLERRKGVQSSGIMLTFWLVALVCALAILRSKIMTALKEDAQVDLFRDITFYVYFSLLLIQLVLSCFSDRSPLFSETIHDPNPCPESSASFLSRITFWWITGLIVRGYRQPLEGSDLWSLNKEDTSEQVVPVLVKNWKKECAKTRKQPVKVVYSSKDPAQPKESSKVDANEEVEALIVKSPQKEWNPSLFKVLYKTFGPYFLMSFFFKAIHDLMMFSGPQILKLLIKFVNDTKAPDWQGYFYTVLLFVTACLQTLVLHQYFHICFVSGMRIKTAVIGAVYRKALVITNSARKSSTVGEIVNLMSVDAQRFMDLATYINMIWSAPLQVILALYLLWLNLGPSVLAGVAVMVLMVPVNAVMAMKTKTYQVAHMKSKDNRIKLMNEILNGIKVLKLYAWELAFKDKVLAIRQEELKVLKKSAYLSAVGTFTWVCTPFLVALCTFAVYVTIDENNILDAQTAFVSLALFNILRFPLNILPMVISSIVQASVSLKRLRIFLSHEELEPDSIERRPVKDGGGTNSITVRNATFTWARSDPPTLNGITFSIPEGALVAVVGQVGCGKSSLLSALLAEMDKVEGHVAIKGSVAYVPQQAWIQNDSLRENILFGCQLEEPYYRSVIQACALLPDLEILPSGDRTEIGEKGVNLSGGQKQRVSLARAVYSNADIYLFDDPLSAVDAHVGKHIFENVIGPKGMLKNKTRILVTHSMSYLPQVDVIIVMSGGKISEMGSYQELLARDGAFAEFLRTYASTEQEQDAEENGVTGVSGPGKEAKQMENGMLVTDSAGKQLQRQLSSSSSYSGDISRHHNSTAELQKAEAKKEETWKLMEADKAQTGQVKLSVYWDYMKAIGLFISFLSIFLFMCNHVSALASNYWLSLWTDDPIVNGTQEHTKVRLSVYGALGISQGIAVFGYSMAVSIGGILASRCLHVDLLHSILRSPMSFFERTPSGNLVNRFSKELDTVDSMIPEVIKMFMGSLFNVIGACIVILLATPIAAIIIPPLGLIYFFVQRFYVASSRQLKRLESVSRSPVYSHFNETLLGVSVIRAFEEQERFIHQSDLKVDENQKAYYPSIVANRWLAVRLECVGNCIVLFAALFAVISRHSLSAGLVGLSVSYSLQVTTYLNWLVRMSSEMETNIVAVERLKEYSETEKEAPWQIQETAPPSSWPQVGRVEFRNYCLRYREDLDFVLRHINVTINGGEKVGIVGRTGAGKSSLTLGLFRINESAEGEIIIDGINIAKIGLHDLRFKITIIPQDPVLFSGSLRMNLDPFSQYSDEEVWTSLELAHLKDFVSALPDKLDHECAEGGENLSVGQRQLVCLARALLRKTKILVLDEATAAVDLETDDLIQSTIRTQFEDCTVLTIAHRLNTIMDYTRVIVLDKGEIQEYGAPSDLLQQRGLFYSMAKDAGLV
- protocol notes: Inhibition of human MRP1 expressed in Spodoptera frugiperda Sf9 cells assessed as inhibition of NEM-GS-induced vanadate-sensitive ATPase activity measured by generation of inorganic phosphate by spectrophotometry in presence of glutathione
property measured: inhibition (INH)

CC1=C(C(=O)Nc2ccc(C)cc2)C(c2ncc[nH]2)C(C(=O)Nc2ccc(C)cc2)=C(C)N1    Not Active
CC1=C(C(=O)Nc2ccccc2)C(c2ncc[nH]2)C(C(=O)Nc2ccccc2)=C(C)N1    Not Active
CC1=C(C(=O)Nc2ccccc2)C(c2cccs2)C(C(=O)Nc2ccccc2)=C(C)N1    Not Active
CC1=C(C(=O)Nc2ccccc2)C(c2ccc[nH]2)C(C(=O)Nc2ccccc2)=C(C)N1    Not Active
CC1=C(C(=O)Nc2ccccc2)C(c2ccc(Cl)cc2)C(C(=O)Nc2ccccc2)=C(C)N1    Not Active
CC1=C(C(=O)Nc2ccccn2)C(c2ccco2)C(C(=O)Nc2ccccn2)=C(C)N1    Not Active
CC1=C(C(=O)Nc2ccccc2)C(c2ccccn2)C(C(=O)Nc2ccccc2)=C(C)N1    Not Active
CC1=C(C(=O)Nc2ccccn2)C(c2ncc[nH]2)C(C(=O)Nc2ccccn2)=C(C)N1    Not Active
